src = the supplement of paper PMC10724198

system: Saccharomyces cerevisiae; assay: protein stability index of tFT-peptide fusion (C-terminal peptide) (PSI (0-1 scale)); higher = more stable (slower turnover); settings: genetic background: wild type; temperature: 30 C
# protein stability index values compiled below

| Seq | protein stability index |
| --- | --- |
| RLTSRSGSANRA [SAC7 C-terminal 12 aa] | 0.65 |
| LWDNKPVEKKRQ [SHH4 C-terminal 12 aa] | 0.72 |
| QALFVLYYLYSI [YDR406W-A C-terminal 12 aa] | 0.445 |
| HKGSTLDIMSID [QNS1 C-terminal 12 aa] | 0.667 |
| PSYAKVQEFATP [NEO1 C-terminal 12 aa] | 0.684 |
| ADFLAKKGASRR [RNH1 C-terminal 12 aa] | 0.698 |
